- measurement-context: in isopentanol, 308.14 K
readout: solubility (mole fraction)

{"structure-as-smiles": "C[C@H]1[C@H](OC(=O)CCC(=O)O)O[C@@H]2O[C@@]3(C)CC[C@H]4[C@H](C)CC[C@@H]1[C@@]24OO3", "test-result": 0.0194}

----------
- measurement-context: in ethanol, 283.06 K

{"structure-as-smiles": "C[C@H]1[C@H](OC(=O)CCC(=O)O)O[C@@H]2O[C@@]3(C)CC[C@H]4[C@H](C)CC[C@@H]1[C@@]24OO3", "solubility (mole fraction)": 0.0113}

----------
- measurement-context: in ethyl acetate, 318.16 K

{"structure-as-smiles": "C[C@H]1[C@H](OC(=O)CCC(=O)O)O[C@@H]2O[C@@]3(C)CC[C@H]4[C@H](C)CC[C@@H]1[C@@]24OO3", "solubility (mole fraction)": 0.0423}
